Assay: UV absorbance spectrum in solution (λmax, λcrit, extinction coefficients)
Format: physicochemical
Conditions: critical wavelength
RESULT_TYPE: λcrit (nm)
# number only, unit nm dropped from output

Item under review: CCCCC(CC)COC(=O)c1ccc2c(c1)CCN2/C=C(\C(=O)C(F)(F)F)c1ccccc1 (stereo not shown) . Reported λcrit? 391

Item under review: O=C(/C(=C\N1CCc2ccccc21)c1ccccc1)C(F)(F)F . Reported λcrit? 389

Item under review: CCCCC(CC)COC(=O)c1ccc2c(c1)CCN2C=C(C(=O)c1c(C)cc(C)cc1C)c1ccccc1 (stereo not shown) . Reported λcrit? 382

Item under review: CCCN(/C=C(/C(=O)C(F)(F)F)c1ccccc1)c1ccccc1 . Reported λcrit? 365
